Ref: ChEMBL document CHEMBL3085697

study.system: CYP3A4 (Homo sapiens)
Sequence (P08684 whole entry): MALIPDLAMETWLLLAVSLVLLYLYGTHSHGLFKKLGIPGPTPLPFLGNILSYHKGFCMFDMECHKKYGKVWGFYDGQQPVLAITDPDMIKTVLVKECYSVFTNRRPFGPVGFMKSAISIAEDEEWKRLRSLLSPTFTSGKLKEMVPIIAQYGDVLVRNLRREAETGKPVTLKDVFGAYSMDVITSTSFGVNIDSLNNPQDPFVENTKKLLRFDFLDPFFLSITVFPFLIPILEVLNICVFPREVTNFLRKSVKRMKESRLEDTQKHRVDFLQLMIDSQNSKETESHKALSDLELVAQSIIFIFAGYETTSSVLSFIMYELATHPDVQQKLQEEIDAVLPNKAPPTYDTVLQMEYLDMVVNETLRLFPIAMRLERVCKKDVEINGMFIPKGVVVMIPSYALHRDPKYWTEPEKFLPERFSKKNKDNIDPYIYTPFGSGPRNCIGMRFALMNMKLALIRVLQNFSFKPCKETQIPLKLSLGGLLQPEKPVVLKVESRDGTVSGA
assay.remarks: Inhibition of CYP3A4 (unknown origin) at 3 uM
Format: ADME
readout.kind: inhibition at 3 µM

Let me know recorded inhibition at 3 µM for "Cc1cn(-c2ccc(CNS(=O)(=O)c3cc(F)ccc3F)cc2)c(C)n1" , thanks.
< 5%

* * *

assay.remarks: Lipophilicity, log D of the compound
Format: physicochemical
measurement.setup: octanol/water
readout.kind: logD
Answers are plain numbers.

Cc1noc(C)c1S(=O)(=O)NCc1ccc(-c2cncc(C#N)c2)cc1 1.9

Dear reader, for each entry below, please note its logD.
1. Cc1cn(-c2ccc(CNS(=O)(=O)c3cc(F)ccc3F)cc2)c(C)n1
2. Cc1noc(C)c1S(=O)(=O)NCc1ccc(-c2ccccc2)s1
3. Cc1nccn1-c1ccc(CNS(=O)(=O)c2ccccc2Cl)cc1
4. Cc1nccn1-c1ccc(CNS(=O)(=O)c2ccc(F)cc2F)cc1
5. Cc1ccccc1S(=O)(=O)NCc1ccc(-n2ccnc2C)cc1
6. Cc1noc(C)c1S(=O)(=O)NCc1ccc(-c2cccc(C#N)c2)cc1
7. Cc1noc(C)c1S(=O)(=O)NCc1ccc(-n2ccnc2C)cc1

1: 2.3; 2: 3.9; 3: 2; 4: 2; 5: 2.3; 6: 3.3; 7: 1.5
